Biological target: T1, CD27 expressed on the cell surface (HT1080_CD27 cells) (human, UniProt P26842 20-260); note: test concentration or dose not given here
T1 sequence (looked up): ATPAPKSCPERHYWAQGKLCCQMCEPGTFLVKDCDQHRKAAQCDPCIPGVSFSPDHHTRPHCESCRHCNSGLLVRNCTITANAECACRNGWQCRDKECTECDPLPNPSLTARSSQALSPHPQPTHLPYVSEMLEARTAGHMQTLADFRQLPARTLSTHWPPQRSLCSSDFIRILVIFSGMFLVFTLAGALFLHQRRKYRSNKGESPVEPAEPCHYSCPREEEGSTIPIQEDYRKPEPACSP
Test: cell-based or functional assay
The reader will find reported IL-8, cross-linked by F(ab')2 fragment [abs. corr.] values listed item by item below.
Just the number please, in abs. corr., no unit attached.

* P018.S.02.A.C06 (antibody, V domains shown, V regions on human Ig constant parts; also called AB27_32) VH: QEQLEESGGGLVQPEGSLTLTCKASGIDFSSNYYISWVRQAPGKGLEWIGCIYTGSDDAAYYASWAKGRFTISKTSSTTVTLQMTSLTAADTATYFCAREILYPTNTDSFDLWGPGTLVTVSS VL: AQVLTQTPSSVSEPVGGIVTINCQASESISSRLAWYQQKPGQPPKLLIYRAATLASGVPSRFKGSGSGTDFTLTISDLESADAATYYCQSYVGASSGGYFFGGGTEVVVK | 1.59
* P018.S.05.A.G04 (antibody, V domains shown, V regions on human Ig constant parts; also called AB27_93) VH: QEQLKESGGRLVKPDESLTLTCTASGFSLSRYDMSWVRQAPGKGLEWIGSIWSDGDTDYANWAKGRFTISKTSTMVDLKITSPTTEDTATYFCGRGYTAWNLWGPGTLVTVSS VL: ALVMTQTPSPVSATVGGTLTISCQSSESVVGNNALSWFQQKPGQPPKLLIYQASTLASGVSSRFSGSGSGTQFTLTISGVQSDDAATYYCQGTYYSSGWYFAFGGGTEVVVK | 1.19

--- query ---
Which IL-8, cross-linked by F(ab')2 fragment [abs. corr.] value is on record for P018.S.01.A.C04 (antibody, V domains shown, V regions on human Ig constant parts; also called AB27_8) VH: QSLEESGGGLVTPGGTLTLTCTASGSDISTYHMGWFRQAPGKGLEYIGFINTGGTTWYASWAKGRFTVSRTSTTVDLLMTSPTTEDTATYFCARYDAGHAFFDLWGPGTLVTVSS VL: AVVMTQTASPVSAAVGGTVTIKCQASQSIGSSYFSWYQQKPGQPPKLLIYSASTLASGVSSRFKGSGSGTEYTLTISDLESADAATYYCQGYDGDTTTAFFAFGGGTEVVVE ?
1.08
